// values below are reported inhibition
SYSTEM: Mitogen-activated protein kinase 3 (Homo sapiens, UniProt P27361)
Sequence (P27361 whole entry): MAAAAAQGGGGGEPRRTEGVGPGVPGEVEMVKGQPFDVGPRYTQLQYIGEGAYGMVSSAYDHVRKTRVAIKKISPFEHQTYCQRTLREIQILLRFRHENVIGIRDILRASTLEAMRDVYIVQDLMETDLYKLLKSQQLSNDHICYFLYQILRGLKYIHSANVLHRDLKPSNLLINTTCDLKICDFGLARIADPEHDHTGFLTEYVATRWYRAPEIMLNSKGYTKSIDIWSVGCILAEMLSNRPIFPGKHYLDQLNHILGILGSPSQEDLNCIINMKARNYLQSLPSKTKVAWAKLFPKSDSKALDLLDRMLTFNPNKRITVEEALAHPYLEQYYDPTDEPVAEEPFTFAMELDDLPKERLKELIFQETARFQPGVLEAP
ASSAY_OVERVIEW: Inhibition of ERK1 (unknown origin) at 30 uM by microfluidic mobility shift assay relative to control
Give the number; % is assumed, so skip it.

Worked examples follow.
- MOLECULE: "c1nc(N2CCCC23CCNCC3)c2nc[nH]c2n1"
  DATA_VALUE: 13
- MOLECULE: "c1nc(N2CCCC3(CCNCC3)C2)c2nc[nH]c2n1"
  DATA_VALUE: 16
- MOLECULE: "O=C(C1CCC2(CCN(c3ncnc4[nH]cnc34)CC2)NC1)N1CCOCC1 (racemic)"
  DATA_VALUE: 18
- MOLECULE: "O=S(=O)(c1cccc2cnccc12)N1CCCC2(CCNCC2)C1"
  DATA_VALUE: 0
- MOLECULE: "OC1CCNC2(CCN(c3ncnc4[nH]cnc34)CC2)C1 (racemic)"
  DATA_VALUE: 28

Moving on to another molecule below.
Challenge: For the molecule O=S(=O)(c1cccc2cnccc12)N1CCC2(CCC(O)CN2)CC1 (racemic) , what inhibition is on record?
Response given: 17

---

// values below are reported pIC50
SYSTEM: Tyrosine-protein kinase Lck (Homo sapiens, UniProt P06239)
Sequence (P06239 whole entry): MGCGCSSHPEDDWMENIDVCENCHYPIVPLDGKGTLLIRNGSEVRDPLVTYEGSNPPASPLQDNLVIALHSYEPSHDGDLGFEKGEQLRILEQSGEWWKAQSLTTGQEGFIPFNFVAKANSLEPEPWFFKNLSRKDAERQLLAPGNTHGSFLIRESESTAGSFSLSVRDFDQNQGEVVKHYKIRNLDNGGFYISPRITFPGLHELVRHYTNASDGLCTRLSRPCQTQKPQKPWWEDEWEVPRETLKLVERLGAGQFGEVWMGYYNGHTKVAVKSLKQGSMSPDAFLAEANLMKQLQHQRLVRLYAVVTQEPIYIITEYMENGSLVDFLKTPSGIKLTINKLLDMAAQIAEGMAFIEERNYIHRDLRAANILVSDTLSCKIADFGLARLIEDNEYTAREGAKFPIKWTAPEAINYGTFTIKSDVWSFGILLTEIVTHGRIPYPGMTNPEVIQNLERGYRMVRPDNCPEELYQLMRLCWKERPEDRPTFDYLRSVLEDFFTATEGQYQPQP
pIC50 here is simply -log10 of the concentration when that concentration is written in mol/L.

- ENTRY_SMILES: "c1nc(N2CCC3(CCCNC3)CC2)c2nc[nH]c2n1"
  pIC50: 4.70

Moving on to another compound below.
Challenge: For the compound c1nc(N2CCC3(CCCCN3)CC2)c2nc[nH]c2n1 , what pIC50 is on record?
Response given: 3.95

---

SYSTEM: Aurora kinase A (Homo sapiens) (UniProt O14965)
Sequence (O14965 whole entry): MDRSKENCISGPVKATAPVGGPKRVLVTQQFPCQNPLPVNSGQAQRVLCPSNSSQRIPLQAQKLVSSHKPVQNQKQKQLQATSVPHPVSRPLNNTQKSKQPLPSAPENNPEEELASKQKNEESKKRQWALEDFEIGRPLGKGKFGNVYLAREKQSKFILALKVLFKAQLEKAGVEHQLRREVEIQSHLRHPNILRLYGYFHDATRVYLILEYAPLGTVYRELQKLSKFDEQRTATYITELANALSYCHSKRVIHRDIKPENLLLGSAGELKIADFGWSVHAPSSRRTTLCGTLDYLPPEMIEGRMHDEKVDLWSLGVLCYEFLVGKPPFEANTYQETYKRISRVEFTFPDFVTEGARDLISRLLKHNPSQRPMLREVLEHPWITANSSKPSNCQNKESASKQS
ASSAY_OVERVIEW: Inhibition of AURA (unknown origin) at 30 uM by microfluidic mobility shift assay relative to control
Use 60% as the dividing line for inhibition, with the line itself on the y side and lower values as n.

Example entries begin here.
- COMPOUND: "O=C(C1CCC2(CCN(c3ncnc4[nH]cnc34)CC2)NC1)N1CCOCC1 (racemic)"
  DISCRETE_LABEL: "y"
- COMPOUND: "O=S(=O)(c1cccc2cnccc12)N1CCCC2(CCCNC2)C1 (stereo unspecified)"
  DISCRETE_LABEL: "n"
- COMPOUND: "NC1(Cc2ccccc2)CCN(c2ncnc3[nH]cnc23)CC1"
  DISCRETE_LABEL: "y"
- COMPOUND: "c1nc(N2CCCC23CCNCC3)c2nc[nH]c2n1"
  DISCRETE_LABEL: "n"

Challenge: Reported inhibition reaches at least 60% for c1nc(N2CCC3(CCCCN3)CC2)c2nc[nH]c2n1 ?
Response given: y

---

SYSTEM: Ribosomal protein S6 kinase alpha-5 (Homo sapiens, UniProt O75582)
Sequence (O75582 whole entry, looked up): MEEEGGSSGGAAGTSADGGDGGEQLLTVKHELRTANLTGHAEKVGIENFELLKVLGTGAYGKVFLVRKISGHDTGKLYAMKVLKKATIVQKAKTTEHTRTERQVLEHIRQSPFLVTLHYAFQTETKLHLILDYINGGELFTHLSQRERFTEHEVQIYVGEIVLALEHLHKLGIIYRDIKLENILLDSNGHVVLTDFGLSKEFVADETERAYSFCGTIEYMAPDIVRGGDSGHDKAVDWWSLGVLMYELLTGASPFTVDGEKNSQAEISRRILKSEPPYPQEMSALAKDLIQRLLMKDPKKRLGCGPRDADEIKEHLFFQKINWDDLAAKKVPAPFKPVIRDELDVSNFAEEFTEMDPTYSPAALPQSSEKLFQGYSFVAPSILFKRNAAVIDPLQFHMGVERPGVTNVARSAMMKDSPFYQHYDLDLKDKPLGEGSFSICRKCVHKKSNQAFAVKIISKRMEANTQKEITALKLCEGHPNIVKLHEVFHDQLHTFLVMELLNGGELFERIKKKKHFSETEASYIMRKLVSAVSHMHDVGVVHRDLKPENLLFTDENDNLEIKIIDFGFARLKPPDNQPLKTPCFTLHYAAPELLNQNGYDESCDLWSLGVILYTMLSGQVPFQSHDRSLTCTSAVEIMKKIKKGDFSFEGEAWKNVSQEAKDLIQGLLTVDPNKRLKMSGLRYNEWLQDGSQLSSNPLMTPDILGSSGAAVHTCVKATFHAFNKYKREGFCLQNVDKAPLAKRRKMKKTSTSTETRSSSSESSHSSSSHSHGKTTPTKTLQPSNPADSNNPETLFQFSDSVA
ASSAY_OVERVIEW: Inhibition of MSK1 (unknown origin) at 30 uM by microfluidic mobility shift assay relative to control
// values below are reported inhibition
Give the number; % is assumed, so skip it.

Worked examples follow.
- COMPOUND: "c1nc(N2CCC3(CCCNC3)CC2)c2nc[nH]c2n1"
  inhibition / %: 98
- COMPOUND: "O=S(=O)(c1cccc2cnccc12)N1CCC2(CCCN2)CC1"
  inhibition / %: 85
- COMPOUND: "c1nc(N2CCC3(CCNC3)CC2)c2nc[nH]c2n1"
  inhibition / %: 94
- COMPOUND: "CN(C)C(=O)C1CCC2(CCN(c3ncnc4[nH]cnc34)CC2)NC1 (racemic)"
  inhibition / %: 93

Challenge: For the compound c1nc(N2CCC3(CCCCC3)CC2)c2nc[nH]c2n1 , what inhibition is on record?
Response given: 35

Challenge: Next compound: c1nc(N2CCCC3(CCCNC3)C2)c2nc[nH]c2n1 (stereo unspecified)
Response given: 71
